These data points were gathered from patent US11850247B2.

measured.on: covalently-crosslinked hexameric CA A14C/E45C/W184A/M185A (CA121) (Human immunodeficiency virus type 1 group M subtype B, UniProt P12493, A146C/E177C/M317A/W316A)
method.notes: Thermal shift assay (TSA), CA hexamer stability
Format: binding, HIV-1
condition.info: compound 20 μM, ΔTm=Tm−T0 vs DMSO
just bin them by TSA ΔTm (° C.): low group = under 1 °C, middle group = from 1 °C up to 4 °C, high group = 4 °C and over

CCn1cc(CC(=O)N[C@@H](Cc2ccccc2)c2ncccc2-c2ccc(Br)cc2)c2ccccc21: high group
COc1ccc2[nH]cc(CC(=O)N[C@@H](Cc3ccccc3)c3nccn3-c3ccc(I)cc3)c2c1: middle group
CCn1cc(CC(=O)N[C@@H](Cc2ccccc2)c2ncccc2-c2ccc(Cl)cc2)c2ccccc21: high group

Alright, here's another molecule for you.
input: Input Cc1cccc2c1NC(=O)C2CC(=O)N[C@@H](Cc1ccccc1)C(=O)N(C)c1ccccc1 (some centres unmarked) ; output its category
output: low group

###

measured.on: covalently-crosslinked hexameric CA A14C/E45C/W184A/M185A (CA121) (Human immunodeficiency virus type 1 group M subtype B, UniProt P12493, A146C/E177C/M317A/W316A)
method.notes: Thermal shift assay (TSA), CA hexamer stability
Type: binding, HIV-1
condition.info: compound 20 μM, ΔTm=Tm−T0 vs DMSO
Overview of recorded TSA ΔTm (° C.) for various compounds
Kindly answer with a numeric value in °C, unit omitted.

Consider the worked cases shown below.
CCN(C(=O)[C@H](Cc1ccccc1)NC(=O)Cc1ccc2ccccc2c1)c1ccccc1 [Example 15]: 4.3
Cc1cccc2c1NC(=O)C2CC(=O)N[C@@H](Cc1ccccc1)C(=O)N(C)c1cccc(Cl)c1 (stereo partly shown) [Example 3]: −1.7
O=C(Cn1ncc2ccccc21)N[C@@H](Cc1ccccc1)c1ncccc1-c1ccccc1 [Example 50]: 1.0

// CN(C(=O)[C@H](Cc1ccccc1)NC(=O)CN1C(=O)NC2(CCCCC2)C1=O)c1cccc(Cl)c1 [Example 28] : TSA ΔTm (° C.) value = 3.3

###

measured.on: covalently-crosslinked hexameric CA A14C/E45C/W184A/M185A (CA121) (Human immunodeficiency virus type 1 group M subtype B, UniProt P12493, A146C/E177C/M317A/W316A)
method.notes: Thermal shift assay (TSA), CA hexamer stability
Assay type: binding, HIV-1
condition.info: compound 20 μM, ΔTm=Tm−T0 vs DMSO
quantity.name: TSA ΔTm (° C.) (°C)
Kindly answer with a numeric value in °C, unit omitted.

CN(C(=O)[C@H](Cc1ccccc1)NC(=O)CNC(=O)c1ccccc1)c1cccc(F)c1 [Example 39]: 0
Cc1ccc(N(C)C(=O)[C@H](Cc2ccccc2)NC(=O)Cc2cccc3ccccc23)cc1 [Example 17]: 5.7
Cc1[nH]c2ccccc2c1CC(=O)N[C@@H](Cc1ccccc1)c1ncccc1-c1ccccc1 [Example 49]: 4.5

// CN(C(=O)[C@H](Cc1ccccc1)NC(=O)CN1C(=O)NC2(CCCCC2)C1=O)c1ccc(F)cc1 [Example 25] : TSA ΔTm (° C.) value = 3.1

// CN(C(=O)[C@H](Cc1ccccc1)NC(=O)CNC(=O)c1ccccc1)c1cccc(Br)c1 [Example 40] : TSA ΔTm (° C.) value = 2.2

// Cc1ccc(C)c2c1NC(=O)C2CC(=O)N[C@@H](Cc1ccccc1)C(=O)N(C)c1cccc(F)c1 (stereo partly drawn) [Example 7] : TSA ΔTm (° C.) value = −1.8
